- targetSystem: GLP-1 receptor (UniProt P43220 24-463, limits assumed)
- runDescription: cell-based or functional assay
Non-standard residues stand in square brackets, D forms with d. No end group written: not given here. Aib = CC(C)(N)C(=O)O
Would you mind telling me the reported pEC50 of each entry?
Note on pEC50: it is the negative log10 of concentration, concentration in mol/L.

Query: // pEC50 lookup, key: HXQGTFTSDYSKYLDEQAAKEFIAWLMNGGPSSGAPPPSK (acylated Lys at 40) [mt-364]
Result: 11.15

Query: Using the record for H[Aib]QGTFTSDYSKYLDEQAAKEFIC(PEG 40 kDa)WLMNGGPSSGAPPPSK-NH2 [mt-350] , report its pEC50.
Result: 10.97

Hey, just so you know, these numbers are from patent US20120172295A1.
